B1: RSPH3 (parent)
chain: MTVKPAKAASLARNLAKRRRTYLG

Variants of: B1
Assay: protein stability index of a GFP-peptide fusion (GPS, HEK-293T) (PSI 1-6); higher = more stable;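 further: lentivirally expressed fusions sorted by FACS into six bins by GFP to DsRed ratio, PSI derived from sequencing read proportions per bin multiplied by bin number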
Conditions: c terminus: a fixed tail appended
Can you tell me protein stability index for the items I'm about to list?
Respond numerically, and do not add a unit to the figure.

If you can, please state the reported protein stability index value of R20T .
2.61

If you can, please state the reported protein stability index value of K7L .
3.62

If you can, please state the reported protein stability index value of A6G .
3.13

If you can, please state the reported protein stability index value of S10I .
2.55

If you can, please state the reported protein stability index value of S10T .
3.41

If you can, please state the reported protein stability index value of L15V .
4.02

If you can, please state the reported protein stability index value of T21S .
3.26

If you can, please state the reported protein stability index value of K4S .
3.36

If you can, please state the reported protein stability index value of L15H .
3.32

If you can, please state the reported protein stability index value of T2F .
1.95

If you can, please state the reported protein stability index value of R19Y .
2.42

If you can, please state the reported protein stability index value of L11S .
3.29

If you can, please state the reported protein stability index value of L15Q .
3.34

If you can, please state the reported protein stability index value of P5K .
2.92

If you can, please state the reported protein stability index value of K17G .
3.5

If you can, please state the reported protein stability index value of P5A .
2.93

If you can, please state the reported protein stability index value of R20D .
3.08

If you can, please state the reported protein stability index value of K7S .
2.66

If you can, please state the reported protein stability index value of V3M .
2.31

If you can, please state the reported protein stability index value of Y22H .
3.84

If you can, please state the reported protein stability index value of A6N .
2.88

If you can, please state the reported protein stability index value of P5V .
2.69

If you can, please state the reported protein stability index value of A8S .
2.55

If you can, please state the reported protein stability index value of N14H .
1.94

If you can, please state the reported protein stability index value of A16F .
2.48

If you can, please state the reported protein stability index value of L23S .
4.5

If you can, please state the reported protein stability index value of R20N .
2.94

If you can, please state the reported protein stability index value of A12E .
2.83

If you can, please state the reported protein stability index value of T2K .
2.81

If you can, please state the reported protein stability index value of R19S .
2.51

If you can, please state the reported protein stability index value of A8P .
2.04

If you can, please state the reported protein stability index value of G24P .
3.63

If you can, please state the reported protein stability index value of K17W .
1.92

If you can, please state the reported protein stability index value of N14V .
2.53

If you can, please state the reported protein stability index value of S10K .
2.1

If you can, please state the reported protein stability index value of T21F .
1.93

If you can, please state the reported protein stability index value of L15G .
4.08

If you can, please state the reported protein stability index value of G24H .
2.7

If you can, please state the reported protein stability index value of A12I .
2.69

If you can, please state the reported protein stability index value of A16I .
2.28

If you can, please state the reported protein stability index value of L11D .
3.46

If you can, please state the reported protein stability index value of T21R .
3.18

If you can, please state the reported protein stability index value of T21D .
3.59

If you can, please state the reported protein stability index value of K17L .
2.61

If you can, please state the reported protein stability index value of K7D .
3.25

If you can, please state the reported protein stability index value of L11I .
2.61

If you can, please state the reported protein stability index value of R20F .
1.96

If you can, please state the reported protein stability index value of A8K .
3.23

If you can, please state the reported protein stability index value of K17C .
1.99

If you can, please state the reported protein stability index value of R18T .
2.73

If you can, please state the reported protein stability index value of S10V .
3.34

If you can, please state the reported protein stability index value of N14F .
1.96

If you can, please state the reported protein stability index value of R13E .
3.08

If you can, please state the reported protein stability index value of T2M .
2.34

If you can, please state the reported protein stability index value of A9T .
3.11

If you can, please state the reported protein stability index value of L11W .
1.83

If you can, please state the reported protein stability index value of R20E .
2.81

If you can, please state the reported protein stability index value of A16C .
2.72

If you can, please state the reported protein stability index value of R18F .
2.71

If you can, please state the reported protein stability index value of R18C .
2.62

If you can, please state the reported protein stability index value of L23I .
4.26

If you can, please state the reported protein stability index value of Y22C .
3.63

If you can, please state the reported protein stability index value of R18G .
3.22

If you can, please state the reported protein stability index value of M1G .
3.28

If you can, please state the reported protein stability index value of G24V .
2.17

If you can, please state the reported protein stability index value of S10L .
3.35

If you can, please state the reported protein stability index value of L11Q .
3.79

If you can, please state the reported protein stability index value of A8V .
2.57

If you can, please state the reported protein stability index value of V3R .
2.98

If you can, please state the reported protein stability index value of L23F .
3.2

If you can, please state the reported protein stability index value of K4Y .
2.58

If you can, please state the reported protein stability index value of G24Q .
2.94

If you can, please state the reported protein stability index value of A9L .
1.79

If you can, please state the reported protein stability index value of T21W .
1.77

If you can, please state the reported protein stability index value of R18I .
2.63

If you can, please state the reported protein stability index value of L15R .
3.92

If you can, please state the reported protein stability index value of A9V .
3.28

If you can, please state the reported protein stability index value of R19D .
2.88

If you can, please state the reported protein stability index value of T2R .
2.74

If you can, please state the reported protein stability index value of M1W .
2.31

If you can, please state the reported protein stability index value of R20C .
1.91

If you can, please state the reported protein stability index value of L11E .
4.03

If you can, please state the reported protein stability index value of R13T .
2.66

If you can, please state the reported protein stability index value of Y22Q .
3.93

If you can, please state the reported protein stability index value of L15I .
3.14

If you can, please state the reported protein stability index value of L23V .
2.96

If you can, please state the reported protein stability index value of K4V .
2.6

If you can, please state the reported protein stability index value of A8E .
3.25

If you can, please state the reported protein stability index value of M1H .
3.45

If you can, please state the reported protein stability index value of A12D .
3.94

If you can, please state the reported protein stability index value of M1F .
2.35
